Assay: soluble on expression in E. coli; label from the status in PepcDB or PDB records
reported_endpoint: soluble on expression in E. coli

Past entries and their recorded results:
MPKIPITLITGFLGSGKTSFLSEYLNQTDHQGVALIINEIGQAALDQRILSVQYCGEKMLYLNAGCVCCNKRLDLVESLKATLNNYEWHGEILRRIIIETTGLANPAPILWTILSDTFLGVHFEIQSVVACVDALNAREHLTNNEAKEQIVFADSVLLTKTDLQNDSAALTKLKERIQALNPSAEIFDKRAIDYESLFSRKNRARNFMPLEHHHHHH not soluble
GPGSMGQSIGDRLQNLVLRDEERARLLSLQNTKSILPSLAPSRRLLLVHAIMTLVVPYVTRKVQRKVLEEGWEREPVPTARYRIAKALRYAVVTWSLLSLANTFNFLMTGRYRTLVERILSLRLVYGSQRMMRFTNLLYMNQHVQWQTWMSLFSALSLGR not soluble
MMEVLTGPERRRRWSVEEKLALVRESFEPGKTVSMVARQHGVNPNQVFHWRKLYQDGSLSAVSAGEEVVPASELAEALKLVRVLQRMLGKKTMENEILREAVEYGRAKKWIARSPSLPGDDQLEHHHHHH not soluble
VTLLEQNPRWRLVPRGQAVNLRCILKNSQYPWMSWYQQDLQKQLQWLFTLRSPGDKEVKSLPGADYLATRVTDTELRLQVANMSQGRTLYCTCSAAPDWGASAETLYFGSGTRLTVL soluble
MTLPDSKKDQTARHVAILQESYRHYTGRYLFDPKLGASEAIVWLEQAPFALVSHGTQPDPIFNYGNQTALQLFGMTWDEFTRMPSRLSAEPVDRAERTRLLDHVSRDGYIDDYTGVRIAADGRRFLIRHATVWNLLDESGRFYGQAAMIPEWEVLQPVFTAD not soluble
RTCRIHEISCGAHSTQCIPVSWRCDGENDCDSGEDEENCGN soluble
MGSDKIHHHHHHMKMTFCRAVCLAAAFLLMGCDEAPETTTASPAAQVLEGKTMGTLWRVSVVGIDAKRAAELQTKIQTQLDADDWLLSTYKNDSALMRFNHSRSLAPWPVSEAMADIVTSALRIGAKTDGAMDITVGPLVNLWGFGPDRQPLHIPTPAQIDAAKAKTGLQHLQVIDRAGHQFLQKDLPDLYVDLSTVGEGYAADHLARLMEQEGIARYLVSVGGALSSRGMNAQGQPWRVAIQKPTDRENAVQAIVDINGHGISTSGSYRNYYELDGKRVSHVIDPQTGRPIEHNLVSVTVIAPTALEADGWDTGLMVLGTQKAQEVVRREGLAVFMIMKEGEGFKTWMSPQFKTFLVSDKN not soluble
MVLAGGVGKRLLPLTRERPKPYLPLAGKPLYMYAVEQVAMVRSLLDRAVMVTPPGHPTPPGSLPSWLDTVEQQGEGVEAGLATALKRLGGGEEVVVSFVGYLARPNTLVRHVLDFYSVTRYKLVLALAPVTRGSESFGFVDADPSTGRVLGFSGSREEWMAGRGRVFAGVLAGDPEALEVLAGEGFVEGINTLARRGLVGSVVWPGEWLEVGYPCDLLEAPRLVVEAWAAVISAKARVARSSVIQGGVVIEEDAEVGEGAVVEGPAYLGRGAVVGRNSVVGPGVVLEEGAVVGDLVSIERSVMLERAEASGPSRLEGVVIGDGAYIAPLAAATNREGCTVVAPKTRLGPRATLEPGKTYTLEHHHHHH not soluble
TLAFCRFSAPGIYFLEKLFHPVASMLVRSTTFLNKHFAKKNHNISVDELSHALELTDKAEISEENNILEGIIRFGGETVKEVMTSRLDMVDLDVRTPFKEVMQCIIENAYSRIPIYSGSRDNIKGVLYIKDLLPHVNKGDNFRWQSLIRPAYFVPETKMIDDLLRDFQANKIHIAIVVDEFGGTSGLVTMEDIIEEIVGEIHDEYDD not soluble
MGVLPKINIVARQFRKCSMAATSTSTSSSDNSVASTAFVQEHVRQMQNDIMVQLIPQDESGAVENLADLNVTSNLGRMTHYYFQQGGKMLRPTVSLLMGNACNSAANRSISEEYLAMLSTERSGIAAHLSVCQNQYKIGMIAEMIHTASLVHDDVIDEANTRRGSASVNAVWGNKMSVLVGDFILARATQILCSIGKPNIISVMASIIEDLVLGEFMQMSTTPTDATPVDRMKAYIEKTHRKTASLFASSCRSAAILADGSDLKLHEIAFEYGRNLGIAFQLADDLLDFIATADEMGKPVAADLKLGLATAPVLYACEQYPELNTMLLRKFKHDGDAEKAREIVVNSDGMDKTRRLIDSYSQKAVEMASSLPNRNESTEHLIKLAMSQSDRKF not soluble

Go through the list and state soluble on expression in E. coli for each entry.
1. MASRETILDVLAKLEECKETLNNSLNYDEAANSNGSSTFQDQSEIKIEHIAPNLVFENGTVPQEQSNSFQWYEEEVSNDACVSSNEYSGVKLCPFNIGFKSYNTPPDQMQQLDKSISDNMACRMNVDFSGIDRLIQHGSEDMRTVGYGMRGMMKLLQIQHEKLMGKKPDDVTTGLKASLVPARFLKEKTVIVRNLTDDADINVNKVFGQLTAQSSSLKNIVINAANVWIKNVVPDEQRKLYSTSIKPQQPQITFPAQLLNGPAGLLVRCLSVTGGDNSSNAVNISLLFKQHVSNLFNHARSKSGITNSRKRKQQSEDYSYN
2. MGSDKIHHHHHHKDLLGREVEIPSNVNRIVAVGPGALRLIAYLKATDMVVGVEDFEKLRPYGRPYILAYPELKKLPSVGPGGPGKLPDLESLITLQPDVVFITYVDRKTAKDIQEKTGIPVVVLSYGNLGTFEDEDLFRSIELAGKILGREERAHEVVDFIRKAQEDLVTRSEGVESPTVYVGGIGYKGAHGIDSTEAKYPPFVVLHARNVVDELGEGHKFIDPEKLLVWNPEYIFIDENGLSLVLDDYSKHREFYESLSAVKRGKVYGILPYNYYTTNIGTALADAYFIGKVLYPERFTDIDPEEKADEIYEFLLGKRVYGEMAEQFGGFGKIDLPSGRILRGTW

Response line:
1: not soluble; 2: not soluble
